molecular target: RmlC (Mycobacterium tuberculosis, UniProt P9WH11)
Sequence (P9WH11 whole entry, looked up): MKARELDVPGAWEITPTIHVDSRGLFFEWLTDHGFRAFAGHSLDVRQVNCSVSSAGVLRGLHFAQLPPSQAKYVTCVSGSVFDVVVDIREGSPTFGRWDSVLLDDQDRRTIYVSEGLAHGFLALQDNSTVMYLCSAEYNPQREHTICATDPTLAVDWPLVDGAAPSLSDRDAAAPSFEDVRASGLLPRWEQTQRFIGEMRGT
Reported Endpoint: pKi
Answer as the number alone; pKi is minus log10 of concentration in mol/L.

Enquiry: Under RmlC (Mycobacterium tuberculosis, UniProt P9WH11): report pKi of `CCn1c2ccccc2c2nnc(SCCCn3c(=O)[nH]c4ccccc43)nc21` .
Return: 7.00

====

test: Cytotoxicity, CellTiter-Glo luminescence; format: cell-based; conditions: human, human aortic endothelial (HAE) cells
Reported Endpoint: IC50 at 24 h

Enquiry: Return value of IC50 at 24 h for input `COc1cccc2c1C(=O)c1c(O)c3c(c(O)c1C2=O)C[C@@](O)(C(=O)CO)C[C@@H]3O[C@H]1C[C@H](N)[C@H](O)[C@H](C)O1` , no commentary.
Return: ~10 µM
